Taken from ChEMBL document CHEMBL4699556.

experiment: Displacement of [3H]AMPA from rat brain synaptic membranes AMPA receptor by equilibrium binding assay; type: cell membranes, Cell membrane
pIC50: −log10 of the molar value.
RECORDED METRIC: pIC50

C[C@H](OS(=O)(=O)O)[C@H](OS(=O)(=O)O)c1cnc2nc(N)[nH]c(=O)c2n1; 6.04

====

experiment: Displacement of [3H]KA from rat brain synaptic membranes Kainate receptor by equilibrium binding assay; type: cell membranes, Cell membrane
pIC50: −log10 of the molar value.
RECORDED METRIC: pIC50

C[C@H](OS(=O)(=O)O)[C@H](OS(=O)(=O)O)c1cnc2nc(N)[nH]c(=O)c2n1; 6.17
